- Measurement Target: P2X7 receptor (Homo sapiens, UniProt Q99572)
- Construct: host or cells: THP-1 cells differentiated with LPS and IFN-γ
- Sequence (Q99572 1-595): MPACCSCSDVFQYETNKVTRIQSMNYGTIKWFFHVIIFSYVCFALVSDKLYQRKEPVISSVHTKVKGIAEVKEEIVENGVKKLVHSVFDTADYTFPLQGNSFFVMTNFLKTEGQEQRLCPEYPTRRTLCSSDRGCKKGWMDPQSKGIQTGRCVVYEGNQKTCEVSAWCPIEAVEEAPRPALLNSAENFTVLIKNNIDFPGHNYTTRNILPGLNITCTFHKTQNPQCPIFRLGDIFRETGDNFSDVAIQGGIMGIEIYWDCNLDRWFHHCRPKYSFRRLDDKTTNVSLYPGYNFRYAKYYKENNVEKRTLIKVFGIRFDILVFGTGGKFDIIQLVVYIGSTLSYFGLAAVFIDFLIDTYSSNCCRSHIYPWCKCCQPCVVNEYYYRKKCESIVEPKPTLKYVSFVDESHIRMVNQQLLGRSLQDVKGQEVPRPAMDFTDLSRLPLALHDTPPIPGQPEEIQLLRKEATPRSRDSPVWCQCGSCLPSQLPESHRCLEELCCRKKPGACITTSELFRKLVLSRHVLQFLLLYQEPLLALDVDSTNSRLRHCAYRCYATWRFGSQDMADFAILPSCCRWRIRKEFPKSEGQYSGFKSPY
- Protocol: IL-1β release assay (BzATP-stimulated, LPS/IFN-γ differentiated THP-1 cells, ELISA)
- Type: cell-based
- Condition Set: at 0.1 μM (asterisk symbols)
Assay Metric: inhibition at 0.1 µM

Record NC(=O)CN1CCc2c(NC(=O)CC34CC5CC(CC(C5)C3)C4)cccc2C1=O . Reported inhibition at 0.1 µM: ≥ 75%

Record CC12CC3CC(C)(C1)CC(CC(=O)Nc1cccc4c(=O)n(Cc5ccco5)ccc14)(C3)C2 . Reported inhibition at 0.1 µM: 25 to 50%

Further cases:
Record O=C(CC12CC3CC(CC(C3)C1)C2)Nc1cccc2c1CCN(Cc1ccccc1F)C2=O . Reported inhibition at 0.1 µM: ≥ 75%

Record CC12CC3CC(C)(C1)CC(CC(=O)Nc1cccc4c1CCN(Cc1ccccc1)C4=O)(C3)C2 . Reported inhibition at 0.1 µM: ≥ 75%

Record CC12CC3CC(C)(C1)CC(CC(=O)Nc1cccc4c(=O)n(Cc5ccc6c(c5)OCO6)ccc14)(C3)C2 . Reported inhibition at 0.1 µM: ≥ 75%

Record CC12CC3CC(C)(C1)CC(CC(=O)Nc1cccc4c(=O)n(Cc5ccccc5)ccc14)(C3)C2 . Reported inhibition at 0.1 µM: 50 to 75%

Record Cn1ccc2c(NC(=O)CC34CC5CC(CC(C5)C3)C4)cccc2c1=O . Reported inhibition at 0.1 µM: ≥ 75%

Record CN1CCC(CN2CCc3c(NC(=O)CC45CC6CC(CC(C6)C4)C5)cccc3C2=O)CC1 . Reported inhibition at 0.1 µM: ≥ 75%

---

- Measurement Target: P2X7 receptor (Homo sapiens, UniProt Q99572)
- Construct: host or cells: THP-1 cells differentiated with LPS and IFN-γ
- Sequence (Q99572 1-595): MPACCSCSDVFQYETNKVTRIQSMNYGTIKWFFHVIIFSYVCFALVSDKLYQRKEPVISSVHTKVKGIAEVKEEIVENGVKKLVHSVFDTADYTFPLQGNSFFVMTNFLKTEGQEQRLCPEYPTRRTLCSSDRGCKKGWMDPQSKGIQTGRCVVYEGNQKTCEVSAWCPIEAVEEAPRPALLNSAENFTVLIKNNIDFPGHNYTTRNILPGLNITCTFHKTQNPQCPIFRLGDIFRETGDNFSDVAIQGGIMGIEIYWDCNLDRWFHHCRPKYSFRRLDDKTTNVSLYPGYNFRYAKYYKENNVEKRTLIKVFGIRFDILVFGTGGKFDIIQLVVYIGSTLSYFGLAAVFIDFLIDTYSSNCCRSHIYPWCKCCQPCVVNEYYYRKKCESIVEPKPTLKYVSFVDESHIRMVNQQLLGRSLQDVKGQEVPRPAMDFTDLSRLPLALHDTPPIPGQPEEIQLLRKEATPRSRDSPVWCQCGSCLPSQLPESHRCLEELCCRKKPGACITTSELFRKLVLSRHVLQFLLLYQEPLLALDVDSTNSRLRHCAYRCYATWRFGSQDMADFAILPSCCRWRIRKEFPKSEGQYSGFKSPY
- Protocol: Pore formation (Yo-Pro 1 uptake, BzATP-stimulated differentiated THP-1 cells)
- Type: cell-based
- Condition Set: at 0.3 μM (plus symbols)
Assay Metric: inhibition at 0.3 µM

Reference set, count: 5
Record O=C(CC12CC3CC(CC(C3)C1)C2)Nc1cccc2c(=O)n(CC3CCCO3)ccc12 (stereo not drawn) . Reported inhibition at 0.3 µM: ≥ 75%

Record O=C(CC12CC3CC(CC(C3)C1)C2)Nc1cccc2c1CCN(Cc1ccccc1)C2=O . Reported inhibition at 0.3 µM: ≥ 75%

Record O=C(CC12CC3CC(CC(C3)C1)C2)Nc1cccc2c1CCN(Cc1ccc(C(F)(F)F)cc1)C2=O . Reported inhibition at 0.3 µM: ≥ 75%

Record O=C(CC12CC3CC(CC(C3)C1)C2)Nc1cccc2c(=O)n(CC3CCOCC3)ccc12 . Reported inhibition at 0.3 µM: ≥ 75%

Record O=C(CC12CC3CC(CC(C3)C1)C2)Nc1cccc2c(=O)[nH]ccc12 . Reported inhibition at 0.3 µM: ≥ 75%

Kindly review the next molecule as well.
Record O=C(CC12CC3CC(CC(C3)C1)C2)Nc1cccc2c(=O)n(Cc3ccc4c(c3)OCCO4)ccc12 . Reported inhibition at 0.3 µM: ≥ 75%

---

- Measurement Target: P2X7 receptor (Homo sapiens, UniProt Q99572)
- Construct: host or cells: THP-1 cells differentiated with LPS and IFN-γ
- Protocol: IL-1β release assay (BzATP-stimulated, LPS/IFN-γ differentiated THP-1 cells, ELISA)
- Type: cell-based
- Condition Set: at 0.3 μM (plus symbols)
Assay Metric: inhibition at 0.3 µM

Reference set, count: 2
Record O=C(CC12CC3CC(CC(C3)C1)C2)Nc1cccc2c(=O)n(CC3CCNCC3)ccc12 . Reported inhibition at 0.3 µM: ≥ 75%

Record Cc1cc(Cn2ccc3c(NC(=O)CC45CC6CC(CC(C6)C4)C5)cccc3c2=O)nn1C . Reported inhibition at 0.3 µM: 25 to 50%

Further cases:
Record O=C(CC12CC3CC(CC(C3)C1)C2)Nc1cccc2c(=O)n(Cc3ccc(F)cc3F)ccc12 . Reported inhibition at 0.3 µM: ≥ 75%

Record O=C(CC12CC3CC(CC(C3)C1)C2)Nc1cccc2c(=O)n(Cc3ccc4c(c3)OCCO4)ccc12 . Reported inhibition at 0.3 µM: ≥ 75%

Record CC12CC3CC(C)(C1)CC(CC(=O)Nc1cccc4c(=O)n(CC5CCNCC5)ccc14)(C3)C2 . Reported inhibition at 0.3 µM: ≥ 75%

Record O=C(CC12CC3CC(CC(C3)C1)C2)Nc1cccc2c(=O)n(Cc3ccccc3Cl)ccc12 . Reported inhibition at 0.3 µM: ≥ 75%

Record O=C(CC12CC3CC(CC(C3)C1)C2)Nc1cccc2c(=O)n(Cc3ccccn3)ccc12 . Reported inhibition at 0.3 µM: ≥ 75%

Record CC(CO)n1ccc2c(NC(=O)CC34CC5CC(CC(C5)C3)C4)cccc2c1=O (centres unmarked) . Reported inhibition at 0.3 µM: ≥ 75%

---

- Measurement Target: P2X7 receptor (Homo sapiens, UniProt Q99572)
- Construct: host or cells: THP-1 cells differentiated with LPS and IFN-γ
- Sequence (Q99572 1-595): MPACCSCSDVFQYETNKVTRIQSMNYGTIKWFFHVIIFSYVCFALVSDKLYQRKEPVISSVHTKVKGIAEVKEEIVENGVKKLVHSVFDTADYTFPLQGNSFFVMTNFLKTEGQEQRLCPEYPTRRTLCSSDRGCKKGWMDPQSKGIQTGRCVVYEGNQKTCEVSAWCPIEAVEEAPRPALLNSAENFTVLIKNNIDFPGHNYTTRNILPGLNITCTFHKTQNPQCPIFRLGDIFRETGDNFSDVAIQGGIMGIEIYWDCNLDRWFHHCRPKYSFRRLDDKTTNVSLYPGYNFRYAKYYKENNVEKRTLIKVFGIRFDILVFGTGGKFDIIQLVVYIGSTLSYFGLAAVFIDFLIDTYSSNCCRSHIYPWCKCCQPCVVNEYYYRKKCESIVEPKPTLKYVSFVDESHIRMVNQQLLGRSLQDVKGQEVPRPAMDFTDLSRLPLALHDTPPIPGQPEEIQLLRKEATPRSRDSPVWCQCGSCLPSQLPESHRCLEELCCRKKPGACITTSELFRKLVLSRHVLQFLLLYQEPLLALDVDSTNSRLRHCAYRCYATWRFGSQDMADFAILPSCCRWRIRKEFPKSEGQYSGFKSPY
- Protocol: IL-1β release assay (BzATP-stimulated, LPS/IFN-γ differentiated THP-1 cells, ELISA)
- Assay type: cell-based
- Condition Set: at 0.1 μM (asterisk symbols)
The entries below come with measured inhibition at 0.1 µM values attached.

Reference set, count: 3
Record O=C(CC12CC3CC(CC(C3)C1)C2)Nc1cccc2c1CCN(Cc1ccc(F)c(F)c1)C2=O . Reported inhibition at 0.1 µM: ≥ 75%

Record CC12CC3CC(C)(C1)CC(CC(=O)Nc1cccc4c1CCN(CCN1CCOCC1)C4=O)(C3)C2 . Reported inhibition at 0.1 µM: 50 to 75%

Record Cc1cc(Cn2ccc3c(NC(=O)CC45CC6CC(C)(CC(C)(C6)C4)C5)cccc3c2=O)no1 . Reported inhibition at 0.1 µM: 50 to 75%

Further cases:
Record CN1CCN(CCCN2CCc3c(NC(=O)CC45CC6CC(CC(C6)C4)C5)cccc3C2=O)CC1 . Reported inhibition at 0.1 µM: ≥ 75%

Record O=C(CC12CC3CC(CC(C3)C1)C2)Nc1cccc2c(=O)n(C(CO)Cc3c[nH]cn3)ccc12 (stereo not drawn) . Reported inhibition at 0.1 µM: ≥ 75%

Record CCN1CCCC1Cn1ccc2c(NC(=O)CC34CC5CC(C)(CC(C)(C5)C3)C4)cccc2c1=O (stereo not drawn) . Reported inhibition at 0.1 µM: 50 to 75%
